System: LXRa:RXRa (NR concentration 270 nM, RXRa partner concentration 90 nM)
Assay: PBM binding z-score (relative to random genomic background probes); higher = stronger binding; sequences stand for … in GC…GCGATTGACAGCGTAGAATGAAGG
Entries annotated with measured PBM binding z-score

SEQUENCE | PBM binding z-score
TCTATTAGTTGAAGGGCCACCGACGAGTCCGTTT | 0.709
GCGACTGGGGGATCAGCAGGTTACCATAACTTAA | 0.523
ATCGAAAGGTCGTGAGGTGCGTATACAGAAAGGC | 3.73
TCTTGTAGATCAAGCTGGTTAAGAAAGCCTGAGT | -0.116
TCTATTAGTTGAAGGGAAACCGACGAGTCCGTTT | 0.912
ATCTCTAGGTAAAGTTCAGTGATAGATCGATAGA | 1.95
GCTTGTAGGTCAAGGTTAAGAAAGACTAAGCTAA | 4.01
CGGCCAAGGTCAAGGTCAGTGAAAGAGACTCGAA | 5.58
TCCTATAGGTAAAGGTGAAAGTCGAACGATATGA | 1.25
AGAAGGAGGTTATACGTAGATCAGGGAAGAAAGT | 1.45

Sourced from the supplement of paper PMC6555819
